Recorded values, source the supplement of paper PMC7877785.

assay: self-splicing fitness, log relative to wild type (ln ratio); higher = more splicing; Tetrahymena group I intron in knt gene, E. coli kanamycin selection, DiMSum; sequences stand for … in CUCUCU…GGAGGGAAAAGUUAUCAGGCAUGCACCUGGUAGCUAGUCUUUAAACCAAUAGAUUGCAUCGGUUUAAAAGGCAAGACCGUCAAAUUGCGGGAAAGGGGUCAACAGCCGUUCAGUACCAAGUCUCAGGGGAAACUUUGAGAUGGCCUUGCAAAGGGUAUGGUAAUAAGCUGACGGACAUGGUCCUAACCACGCAGCCAAGUCCUAAGUCAACAGAUCUUCUGUUGAUAUGGAUGCAGUUCACAGACUAAAUGUCGGUCGGGGAAGAUGUAUUCUUCUCAUAAGAUAUAGUCGGACCUCUCCUUAAUGGGAGCUAGCGGAUGAAGUGAUGCAACACUGGAGCCGCUGGGAACUAAUUUGUAUGCGAAAGUAUAUUGAUUAGUUUUGGAGUACUCGUGGUCG; conditions: 37 °C;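 also: selection with 25 µg/mL kanamycin versus none on LB agar overnight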
readoutName: self-splicing fitness (ln)

Solved entries:
{"macromoleculeSequence": "AGGCAGCAAUAUUACGUGUG", "measured": -1.44}
{"macromoleculeSequence": "CGAAAGCAAUAUUACGUACC", "measured": -0.845}
{"macromoleculeSequence": "CCCUAGCAAUAUUACGGGUC", "measured": -2.65}
{"macromoleculeSequence": "CACCAGCAAUAUUACGGGUA", "measured": -0.404}
{"macromoleculeSequence": "GCUGAGCAAUAUUACGCAUA", "measured": -1.82}

I'd like to know its self-splicing fitness (ln). The sequence in question is GCGCAGCAAUAUUACGGGCU
-3.02

Please give the result for CAGCAGCAAUAUUACGUACU too.
-2.5

Please give the result for UUUAAGCAAUAUUACGACUG too.
0.954

* * *

self-splicing fitness (ln) values, listed per item
experiment: self-splicing fitness, log relative to wild type (ln ratio); higher = more splicing; Tetrahymena group I intron in knt gene, E. coli kanamycin selection, DiMSum; sequences stand for … in CUCUCU…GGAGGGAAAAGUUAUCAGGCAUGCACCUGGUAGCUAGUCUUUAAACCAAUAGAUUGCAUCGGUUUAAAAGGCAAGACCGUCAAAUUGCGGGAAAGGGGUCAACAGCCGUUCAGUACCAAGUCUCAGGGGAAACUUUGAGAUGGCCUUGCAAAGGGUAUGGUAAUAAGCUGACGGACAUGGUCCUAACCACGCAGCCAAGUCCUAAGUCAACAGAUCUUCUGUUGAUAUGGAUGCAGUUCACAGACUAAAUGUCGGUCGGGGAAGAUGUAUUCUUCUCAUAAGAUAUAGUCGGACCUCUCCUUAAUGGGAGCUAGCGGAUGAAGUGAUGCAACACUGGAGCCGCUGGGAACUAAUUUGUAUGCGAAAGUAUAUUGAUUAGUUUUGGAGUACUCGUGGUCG; details: 30 °C
Give your answer as a number; write no unit.

{"macromoleculeSequence": "UCUAAGCAAUAUUACGCCAC", "measured": -2.44}

I'd like to know its self-splicing fitness (ln). The sequence in question is UCGGAGCAAUAUUACGUUAU
-3.36

Please give the result for CCGGAGCAAUAUUACGGAUC too.
-2.42

Please give the result for GACUAGCAAUAUUACGUGAA too.
-0.567

Please give the result for UUUGAGCAAUAUUACGUCUG too.
-2.41

Please give the result for UGGAAGCAAUAUUACGAGAU too.
-3.92

Please give the result for AAGUAGCAAUAUUACGCGCC too.
-0.381

Please give the result for UAAAAGCAAUAUUACGACGU too.
-0.791

Please give the result for CUCAAGCAAUAUUACGCUGG too.
-3.19

Please give the result for UCUUAGCAAUAUUACGUUGU too.
-3.61

Please give the result for UUGGAGCAAUAUUACGAGAU too.
-2.83

Please give the result for UAGCAGCAAUAUUACGUUCC too.
-3.78

Please give the result for UACCAGCAAUAUUACGUGCC too.
-3.35
